- Measured Target: sec7-domain of cytohesin-2 (ARNO) (Homo sapiens)
- Construct: ARNO-Sec7 (amino acids 50-255 of ARNO) were expressed in Escherichia coli
- Sequence (Q99418 50-255): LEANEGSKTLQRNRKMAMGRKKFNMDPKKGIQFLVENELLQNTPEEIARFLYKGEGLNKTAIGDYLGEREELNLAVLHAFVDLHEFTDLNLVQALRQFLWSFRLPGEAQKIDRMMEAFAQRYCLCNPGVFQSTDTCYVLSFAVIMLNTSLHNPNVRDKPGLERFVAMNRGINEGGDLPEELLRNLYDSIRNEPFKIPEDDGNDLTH
- Assay Comment: guanine nucleotide exchange assay (GDP/GTP exchange on [Δ17]ARF1, tryptophan fluorescence)
- Condition Details: isolated Sec-7 domain, each experiment at least 8 times, read-out: IC50 values measured for the isolated Sec-7 domain of cytohesin-2
pIC50: −log10 of the molar value.
Assay Readout: pIC50

Example results:
- CC(C)(C)c1ccc(C(=O)Nc2ccc(NC(=O)c3cccc(Cl)c3)cc2)cc1 [formula (6)]: 6.10
- CC(C)(C)c1ccc(C(=O)Nc2ccc(NC(=O)c3ccccc3[N+](=O)[O-])cc2)cc1 [formula (5)]: 5.93
- CC(C)(C)c1ccc(C(=O)Nc2ccc(NC(=O)c3ccc4c(c3)OCCO4)cc2)cc1 [formula (18)]: 5.87
- CC(C)(C)c1ccc(C(=O)Nc2ccc(NC(=O)c3ccccc3F)cc2)cc1 [formula (15)]: 5.75

(A) Cc1ccc(C(=O)Nc2ccc(NC(=O)c3ccc(C(C)(C)C)cc3)cc2)c(C)c1 [formula (12)]
(B) CC(C)(C)c1ccc(C(=O)Nc2ccc(NC(=O)/C=C/c3ccco3)cc2)cc1 [formula (16)]
(C) CC(C)(C)c1ccc(C(=O)Nc2ccc(NC(=O)c3ccc([N+](=O)[O-])cc3)cc2)cc1 [formula (10)]
(D) CC(C)(C)c1ccc(C(=O)Nc2ccc(NC(=O)c3ccncc3)cc2)cc1 [formula (13)]
Order the 4 compounds from highest to lowest pIC50. Could you list the labels in the order requested? C, A, B, D

---

- Measured Target: sec7-domain of cytohesin-2 (ARNO) (Homo sapiens)
- Construct: ARNO-Sec7 (amino acids 50-255 of ARNO) were expressed in Escherichia coli
- Assay Comment: guanine nucleotide exchange assay (GDP/GTP exchange on [Δ17]ARF1, tryptophan fluorescence)
- Condition Details: isolated Sec-7 domain, each experiment at least 8 times, read-out: IC50 values measured for the isolated Sec-7 domain of cytohesin-2
- Method: The inhibition of the exchange activity of the sec7-domain of cytohesin-2 (ARNO) of the phenyl diamides according to formulas (5) to (18) was determined by a guanine nucleotide exchange assay. […] The exchange from […] (GDP) to […] (GTP) induces a conformation change of the ribosylation factor, as a result of which the fluorescence of a tryptophan radical of the protein is increased. […]
Assay Readout: IC50 (nM)

// solved cases for IC50 follow
• CC(C)(C)c1ccc(C(=O)Nc2ccc(NC(=O)c3ccc(F)cc3)cc2)cc1 = 2100
• CC(C)(C)c1ccc(C(=O)Nc2ccc(NC(=O)c3ccccc3Cl)cc2)cc1 = 2580

(P) CC(C)(C)c1ccc(C(=O)Nc2ccc(NC(=O)c3ccc(Br)o3)cc2)cc1
(Q) CC(C)(C)c1ccc(C(=O)Nc2ccc(NC(=O)c3ccc4c(c3)OCO4)cc2)cc1
(R) Cc1ccccc1C(=O)Nc1ccc(NC(=O)c2ccc(C(C)(C)C)cc2)cc1
(S) Cc1ccc(C(=O)Nc2ccc(NC(=O)c3ccc(C(C)(C)C)cc3)cc2)cc1
Arrange items by their IC50 values in increasing order. # the answer lists labels in the order requested R, S, Q, P
(R: 1190 nM, S: 1760 nM, Q: 2690 nM, P: 4570 nM)

---

Each entry below carries its recorded inhibition at 0.25 µM.
- System: U87 wt
- Assay Comment: glioblastoma proliferation assay (MTT), U87 wt
- Type: cell-based
- Condition Details: Homo sapiens, U87WT, 250 nM, 72 h, vs DMSO control, read-out: inhibitory effect on cell proliferation as compared to control

The cases that follow already have their inhibition at 0.25 µM on record.
• CC(C)(C)c1ccc(C(=O)Nc2ccc(NC(=O)c3cccc(Cl)c3)cc2)cc1 = 30 to 50%
• CC(C)(C)c1ccc(C(=O)Nc2ccc(NC(=O)c3ccc([N+](=O)[O-])cc3)cc2)cc1 = > 50%
• Cc1ccc(C(=O)Nc2ccc(NC(=O)c3ccc(C(C)(C)C)cc3)cc2)cc1 = > 50%

Value of inhibition at 0.25 µM reported for the compound CC(C)(C)c1ccc(C(=O)Nc2ccc(NC(=O)c3ccccc3Cl)cc2)cc1 is > 50%

The measured inhibition at 0.25 µM associated with CC(C)(C)c1ccc(C(=O)Nc2ccc(NC(=O)c3ccccc3[N+](=O)[O-])cc2)cc1 reads 30 to 50%

For this compound ( Cc1ccccc1C(=O)Nc1ccc(NC(=O)c2ccc(C(C)(C)C)cc2)cc1 ), measured inhibition at 0.25 µM is > 50%

Query CC(C)(C)c1ccc(C(=O)Nc2ccc(NC(=O)c3ccc(F)cc3)cc2)cc1 yields inhibition at 0.25 µM of 30 to 50%
